- Test system: PXR:RXRa (NR concentration 270 nM, RXRa partner concentration 90 nM)
- test-summary: PBM binding z-score (relative to random genomic background probes); higher = stronger binding; sequences stand for … in GC…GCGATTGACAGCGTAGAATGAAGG
We use 0.4 as the dividing line for PBM binding z-score: on or above the line is MET, below is NOT MET.

monomer-sequence	class-assignment
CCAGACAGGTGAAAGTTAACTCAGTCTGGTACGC	NOT MET
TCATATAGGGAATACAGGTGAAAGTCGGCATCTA	MET
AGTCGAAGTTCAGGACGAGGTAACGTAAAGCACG	MET
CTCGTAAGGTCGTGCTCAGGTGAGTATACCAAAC	MET
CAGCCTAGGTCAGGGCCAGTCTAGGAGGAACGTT	NOT MET
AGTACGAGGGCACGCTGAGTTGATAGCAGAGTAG	MET
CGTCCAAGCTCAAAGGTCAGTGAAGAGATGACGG	MET
ACTATTAGCTGAGACGAGGGCAACCGATAGGTTG	NOT MET
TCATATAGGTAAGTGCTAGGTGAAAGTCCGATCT	NOT MET
GCAGACAGGTTAAACGCAGGTAACTCAGGGTGGC	NOT MET
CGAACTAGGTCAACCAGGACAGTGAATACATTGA	MET
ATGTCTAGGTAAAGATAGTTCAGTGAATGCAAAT	MET
